Cited source: patent US20150104459A1

# TARGET_OF_ASSAY: recombinant soluble homotrimeric HA, A/common magpie/Hong Kong/5052/07 (H5N1) (influenza A virus A/common magpie/Hong Kong/5052/2007 (H5N1))
# PROCEDURE_DETAILS: microarray, trimeric HA, transfection supernatant
# TEST_CONDITIONS: remark: other sources report otherwise
So basically: is Trimeric HA Binding RLU under 2000 RLU? Then label 1. Not under? Then label 0.

A selection of reference data follows.
query: Regarding TCN-542 (5079_A16) (antibody, V domains shown) VH: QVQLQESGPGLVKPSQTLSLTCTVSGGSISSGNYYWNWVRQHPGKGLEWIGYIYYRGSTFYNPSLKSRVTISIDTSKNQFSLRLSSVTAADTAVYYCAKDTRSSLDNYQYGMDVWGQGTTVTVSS VL: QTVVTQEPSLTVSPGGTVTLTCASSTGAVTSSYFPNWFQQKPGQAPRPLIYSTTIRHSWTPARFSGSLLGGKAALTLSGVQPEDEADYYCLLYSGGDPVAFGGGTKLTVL , kindly confirm whether its Trimeric HA Binding RLU is beneath 2000 RLU.
result: label 1

query: For TCN-535 (5246_P19) (antibody, V domains shown) VH: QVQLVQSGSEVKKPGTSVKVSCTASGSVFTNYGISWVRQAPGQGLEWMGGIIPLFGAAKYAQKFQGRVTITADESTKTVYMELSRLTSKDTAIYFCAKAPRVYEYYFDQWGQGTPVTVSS VL: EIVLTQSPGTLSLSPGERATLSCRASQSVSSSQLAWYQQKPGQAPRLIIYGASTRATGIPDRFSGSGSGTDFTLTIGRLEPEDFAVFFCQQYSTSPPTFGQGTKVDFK , is the recorded Trimeric HA Binding RLU below the cut-off of 2000 RLU?
result: label 1

query: Dear colleague, could you confirm whether Trimeric HA Binding RLU of TCN-546 (5089_L08) (antibody, V domains shown) VH: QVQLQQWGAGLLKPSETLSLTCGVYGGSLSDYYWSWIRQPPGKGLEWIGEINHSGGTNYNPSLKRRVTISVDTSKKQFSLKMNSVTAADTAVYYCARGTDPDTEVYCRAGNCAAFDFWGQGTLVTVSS VL: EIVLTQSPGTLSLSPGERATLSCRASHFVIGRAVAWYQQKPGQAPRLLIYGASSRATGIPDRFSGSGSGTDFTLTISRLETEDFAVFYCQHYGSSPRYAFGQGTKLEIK falls below 2000 RLU? Thanks.
result: label 1

query: Is it true that Trimeric HA Binding RLU reported for TCN-555 (5246_L16) (antibody, V domains shown) VH: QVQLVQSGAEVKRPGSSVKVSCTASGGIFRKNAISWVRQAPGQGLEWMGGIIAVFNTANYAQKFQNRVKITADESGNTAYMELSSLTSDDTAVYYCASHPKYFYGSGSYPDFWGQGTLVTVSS VL: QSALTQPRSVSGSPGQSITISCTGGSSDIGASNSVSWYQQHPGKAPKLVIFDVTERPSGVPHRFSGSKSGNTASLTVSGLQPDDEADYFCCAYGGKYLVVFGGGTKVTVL is less than 2000 RLU?
result: label 0

***
query: Strictly below 2000 RLU: is that where Trimeric HA Binding RLU of TCN-552 (5249_I23) (antibody, V domains shown) VH: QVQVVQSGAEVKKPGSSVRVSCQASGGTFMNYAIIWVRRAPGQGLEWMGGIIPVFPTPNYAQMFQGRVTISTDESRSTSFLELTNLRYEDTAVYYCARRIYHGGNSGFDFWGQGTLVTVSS VL: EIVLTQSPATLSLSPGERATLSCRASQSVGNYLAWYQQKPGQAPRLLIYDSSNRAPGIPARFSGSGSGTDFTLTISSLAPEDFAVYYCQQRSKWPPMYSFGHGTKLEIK sits?
result: label 0
